- Condition parameters: buffer; pH 7.4; 200.0 µM
Short version: solubility kinetic at least 30 µg/mL is Fulfilled, less is Not fulfilled.

Task: Reported solubility kinetic reaches at least 30 µg/mL for Cn1cc(/C=C2\SC(=O)N(c3ccc(O)cc3)C2=O)c2ccccc21 ?
Output: Not fulfilled

Task: Reported solubility kinetic reaches at least 30 µg/mL for Cc1ccc(C(=O)N/C(=C\c2ccco2)C(=O)N2CCCCC2)cc1 ?
Output: Fulfilled

Task: Reported solubility kinetic reaches at least 30 µg/mL for COc1cc([N+](=O)[O-])ccc1NC(=O)Cc1ccccc1 ?
Output: Not fulfilled

Task: Reported solubility kinetic reaches at least 30 µg/mL for Cl.O[C@@H]1CCCC[C@H]1N1CCC(c2ccccc2)CC1 ?
Output: Fulfilled

Task: Reported solubility kinetic reaches at least 30 µg/mL for CC(C)C12CN3CC(C(C)C)(CN(C1)C3(C)C)C2=O ?
Output: Fulfilled

Task: Reported solubility kinetic reaches at least 30 µg/mL for O=C(CCCOc1ccccc1)Nc1ccc(Cl)c(S(=O)(=O)N2CCOCC2)c1 ?
Output: Not fulfilled

Task: Reported solubility kinetic reaches at least 30 µg/mL for CSc1nc2nc3c(cc2c(=O)n1-c1cccc(C)c1)COC(C)(C)C3 ?
Output: Not fulfilled

Task: Reported solubility kinetic reaches at least 30 µg/mL for O=S(=O)(c1ccc(Cl)cc1)N1CCN(c2ncnc3sccc23)CC1 ?
Output: Not fulfilled

Task: Reported solubility kinetic reaches at least 30 µg/mL for Cc1cc(C)c(NS(=O)(=O)c2c(C)noc2C)c(C)c1 ?
Output: Fulfilled

Task: Reported solubility kinetic reaches at least 30 µg/mL for OC(CN1CCCCC1)c1c[nH]c2ccccc12 (stereo not given) ?
Output: Fulfilled

Task: Reported solubility kinetic reaches at least 30 µg/mL for Cc1nc(C)c(-c2ccnc(/N=C/NO)n2)s1 ?
Output: Fulfilled

Task: Reported solubility kinetic reaches at least 30 µg/mL for CCc1sc(C(=O)Nc2ncccc2C)cc1C ?
Output: Fulfilled

Task: Reported solubility kinetic reaches at least 30 µg/mL for CC(C)c1ccc(OCC(=O)N2CCc3ccccc3C2)cc1 ?
Output: Not fulfilled

Task: Reported solubility kinetic reaches at least 30 µg/mL for Cn1ccsc1=NC(=O)c1cccc(C#N)c1 ?
Output: Fulfilled

Task: Reported solubility kinetic reaches at least 30 µg/mL for O=C(Nc1ccccc1Cl)NC1(C(=O)N2CCOCC2)CCCCC1 ?
Output: Not fulfilled

Task: Reported solubility kinetic reaches at least 30 µg/mL for Cc1cc(Nc2cccc(Cl)c2Cl)n2ncnc2n1 ?
Output: Fulfilled

Task: Reported solubility kinetic reaches at least 30 µg/mL for COc1cc(-c2csc(NC3CCCCC3)n2)cc(OC)c1OC ?
Output: Not fulfilled

Task: Reported solubility kinetic reaches at least 30 µg/mL for Cc1ccc(CNC(=O)Cn2cccc2)cc1 ?
Output: Fulfilled

Task: Reported solubility kinetic reaches at least 30 µg/mL for COc1ccc2ccccc2c1CN1CCSCC1 ?
Output: Not fulfilled

Task: Reported solubility kinetic reaches at least 30 µg/mL for CN(C)CCCNC(=O)C(=O)NCC1CCCO1 (stereo not given) ?
Output: Fulfilled

Task: Reported solubility kinetic reaches at least 30 µg/mL for CCN(C(=O)c1ccc(Br)cc1)c1ccccc1 ?
Output: Fulfilled

Task: Reported solubility kinetic reaches at least 30 µg/mL for Cc1ccc(S(=O)(=O)NC(=O)c2ccccc2C)cc1 ?
Output: Fulfilled

Task: Reported solubility kinetic reaches at least 30 µg/mL for CC(N)C(=O)OC(C)(C)Cc1ccc(Cl)cc1.Cl (stereo not given) ?
Output: Fulfilled

Task: Reported solubility kinetic reaches at least 30 µg/mL for COc1ccc(C(=O)OCC(=O)N2CCc3ccccc3C2)cc1OC ?
Output: Fulfilled
